# Test system: Caco-2
# Assay Protocol: drug sensitivity score (DSS) for viability; higher = more toxic; extreme values may be limits of the assay
# Test Conditions: 72 h
drug sensitivity score: recorded values
// keep it numeric: no unit symbol after the value

### Prompt Provide measured drug sensitivity score value, entry: NCCc1cc(O)c(O)cc1O
### Response 0

### Prompt Quote drug sensitivity score reported for Nc1ccc(C(=O)Nc2cccc(-c3nc(N4CCOCC4)c4oc5ncccc5c4n3)c2)cn1 please.
### Response 1.8

----------
Here, each record is paired with measured drug-induced phospholipidosis data.
# Test system: A549-ACE2
# Assay Protocol: drug-induced phospholipidosis relative to tamoxifen; higher = more phospholipidosis
# Test Conditions: 3.33333 µM; 72 h
Quote the value and follow it with the unit of measurement.

### Prompt Recall and state the measured drug-induced phospholipidosis for C#C[C@]1(O)CC[C@H]2[C@@H]3CCc4cc(OC5CCCC5)ccc4[C@H]3CC[C@@]21C .
### Response 19.1%

### Prompt Note down drug-induced phospholipidosis recorded for Cn1c(NC[C@@H](N)Cc2ccccc2)nc(-c2ccncc2)c(-c2ccc3ccccc3c2)c1=O
### Response 7.44%

### Prompt Give me measured drug-induced phospholipidosis, please, for this compound: CCCCCCCCNC(=O)/C(C#N)=C/c1cn(CCCN(C)C)c2ccccc12
### Response 27.6%

### Prompt Please give measured drug-induced phospholipidosis of the following entry: Cc1cc(Nc2ncc(Cl)c(Nc3ccccc3S(=O)(=O)C(C)C)n2)c(OC(C)C)cc1C1CCNCC1
### Response 83.1%
